Hi there, I'd appreciate the recorded Percent Effect for every entry that follows.
- target_system: Protein translocase subunit SecA (Escherichia coli (strain K12))
- assay_text: Assay to Identify E. coli SecA ATPase Inhibitors
- Assay type: functional
- Set-up: scale not given: direction of the effect not stated beside the values
- experimental_parameters: 30 µM
Results with a measured potency or affinity are listed apart.
Write the answer as a number in %, unit excluded.

Prompt line: Request body: readout Percent Effect, system Protein translocase subunit SecA (Escherichia coli (strain K12)), query COCCNc1nc(C2CCCC2)nc2c1CCNCC2 . Return the value.
Response line: -0.492

Prompt line: Give Percent Effect (Protein translocase subunit SecA (Escherichia coli (strain K12))) of the following compound: CC(NC(=O)c1ccc2c(c1)OCC(=O)N2)c1ccccc1F (stereo unspecified)
Response line: -5.46

Prompt line: Hello, I am looking for reported Percent Effect with Protein translocase subunit SecA (Escherichia coli (strain K12)) for O=C(NCC(O)c1cccc(F)c1)c1cccnc1O (stereo unspecified) . Could you help?
Response line: -5.99

Prompt line: Return Percent Effect measured with Protein translocase subunit SecA (Escherichia coli (strain K12)) given this compound: Cc1cc(C)c(CNC(=O)C2CCCN(c3cnccn3)C2)c(=O)[nH]1 (stereo unspecified)
Response line: -3.46

Prompt line: API: value(readout= Percent Effect, system= Protein translocase subunit SecA (Escherichia coli (strain K12)), query= Cc1nc(C)n(CC2CCCN(CC(=O)Nc3c(C)n[nH]c3C)C2)n1 (stereo unspecified) )
Response line: -1.71

Prompt line: State its Percent Effect on Protein translocase subunit SecA (Escherichia coli (strain K12)): CC(NC(=O)NCCCOC1CCCCC1)c1nncn1C (stereo unspecified)
Response line: -0.354

----------
- target_system: Arginase-2, mitochondrial (Homo sapiens)
- assay_text: in vitro enzyme assay to detect the production of urea directly proportional to the activity of Arginase II; note: in the data most compounds retested in dose-response had high values
- Assay type: functional
- Set-up: scale not given: direction of the effect not stated beside the values
- experimental_parameters: 33.3 µM
measurement_kind: Percent Effect (%)
Express your answer in %, writing the number without its unit.

Prompt line: Record lookup: for Arginase-2, mitochondrial (Homo sapiens), what Percent Effect belongs to CC(C(N)=O)S(=O)(=O)Cc1cc(Cl)c2c(c1)OCO2 (configuration not stated) ?
Response line: 7.91

Prompt line: Find Percent Effect (Arginase-2, mitochondrial (Homo sapiens)) for the entry O=C(Nc1ccccc1)C1CN(CC2CC2)CC12CCOCC2 (configuration not stated)
Response line: -8.42

Prompt line: I'm curious: which Percent Effect was measured for Cc1nc2ccccc2c(=O)n1CCC(=O)N1CCSCC1 tested on Arginase-2, mitochondrial (Homo sapiens)?
Response line: 0

Prompt line: Which Percent Effect is reported with Arginase-2, mitochondrial (Homo sapiens) for this entry: Cc1cnn(CC2CN(Cc3nc(N)c4ccccc4n3)CCO2)c1 (configuration not stated) ?
Response line: -1.47

Prompt line: Kindly state the measured Percent Effect obtained for CNC(=O)c1nc2c(s1)CCN(C(=O)c1cccnc1)CC2 with Arginase-2, mitochondrial (Homo sapiens).
Response line: -50.4

Prompt line: For Arginase-2, mitochondrial (Homo sapiens), provide Percent Effect of Cc1csc(N2CCN(C(=O)CCNc3ncccn3)CC2)n1 please.
Response line: -6.41

Prompt line: # get_value(readout= Percent Effect, system= Arginase-2, mitochondrial (Homo sapiens)) for CC(C)c1cnc(CNc2c(F)cccc2-n2cccn2)o1
Response line: 12.4

Prompt line: Query for Arginase-2, mitochondrial (Homo sapiens): what Percent Effect does the record show for CCCn1nc(C)c(CNC(=O)C2COc3c(cccc3OC)C2)c1C (configuration not stated) ?
Response line: -5.59

Prompt line: # get_value(readout= Percent Effect, system= Arginase-2, mitochondrial (Homo sapiens)) for CCN(CC)CC(=O)NCCc1csc(N2CCCC2)n1
Response line: -1.04

Prompt line: So what Percent Effect did c1ccc(Cn2ccnc2CN2CCOC(Cn3cccn3)C2)cc1 (configuration not stated) get with Arginase-2, mitochondrial (Homo sapiens)?
Response line: -5.81

Prompt line: Please tell me: Percent Effect of CCc1noc(C2CCN(C(=O)CCn3nc(C)cc3C)CC2)n1 , system Arginase-2, mitochondrial (Homo sapiens)?
Response line: -5.52

Prompt line: Can you look up Percent Effect on Arginase-2, mitochondrial (Homo sapiens) for O=C(NCc1ccccn1)[C@H]1COC[C@H]2CN(Cc3ccoc3)C[C@H]21 ?
Response line: 2.87
